# Protocol: pKa values of pH probes (control of pKa by changing structure)
# Type: physicochemical
# Condition label: pH probe
Test readout: pKa
Answers are plain numbers.

Solved cases below.
CN1/C(=C/C=C2\CCCC(/C=C/C3=[N+](C)c4ccccc4C3(C)C)=C2N2CCN(c3ccccc3)CC2)C(C)(C)c2ccccc21 [Compound 5]: 2.1
CCN(CC)CCN(C)C1=C(/C=C/C2=[N+](C)c3ccccc3C2(C)C)CCC/C1=C\C=C1\N(C)c2ccccc2C1(C)C [Compound 3]: 8.7
CN(C)CCN(C)C1=C(/C=C/C2=[N+](C)c3ccccc3C2(C)C)CCC/C1=C\C=C1\N(C)c2ccccc2C1(C)C [Compound 2]: 8.1
CN1/C(=C/C=C2\CCCC(/C=C/C3=[N+](C)c4ccccc4C3(C)C)=C2N2CCN(Cc3ccccc3)CC2)C(C)(C)c2ccccc21 [Compound 1]: 5.5

The compound CN1CCN(C2=C(/C=C/C3=[N+](C)c4ccccc4C3(C)C)CCC/C2=C\C=C2\N(C)c3ccccc3C2(C)C)CC1 [Compound 4] showed pKa equal to 6.8

Hello, the source for this data is patent US8507677B2, in case you need it.
